I'd be grateful if you could share measured kcat/KM (M^-1s^-1), FX activation by FIXa in the Xase complex for these entries.
Molecular target: Factor X (FX), P00742
Sequence (P00742 whole entry, looked up): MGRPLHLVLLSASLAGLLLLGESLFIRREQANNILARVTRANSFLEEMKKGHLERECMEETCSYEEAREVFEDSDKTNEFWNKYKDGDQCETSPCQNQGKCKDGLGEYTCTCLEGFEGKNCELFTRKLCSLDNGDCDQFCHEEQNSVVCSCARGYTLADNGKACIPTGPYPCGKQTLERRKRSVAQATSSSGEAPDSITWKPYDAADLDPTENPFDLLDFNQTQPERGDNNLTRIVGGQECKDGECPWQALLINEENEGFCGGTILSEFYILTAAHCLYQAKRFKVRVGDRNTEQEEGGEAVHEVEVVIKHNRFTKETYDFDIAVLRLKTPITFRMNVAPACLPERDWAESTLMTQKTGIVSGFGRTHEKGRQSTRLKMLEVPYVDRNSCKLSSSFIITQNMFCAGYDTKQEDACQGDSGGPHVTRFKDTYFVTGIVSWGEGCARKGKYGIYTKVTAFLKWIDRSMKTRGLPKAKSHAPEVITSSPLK
Don't forget the unit after the value.

Ask: Need kcat/KM (M^-1s^-1), FX activation by FIXa in the Xase complex of FIXa-K228N/R318Y/E410N (protein) chain 1: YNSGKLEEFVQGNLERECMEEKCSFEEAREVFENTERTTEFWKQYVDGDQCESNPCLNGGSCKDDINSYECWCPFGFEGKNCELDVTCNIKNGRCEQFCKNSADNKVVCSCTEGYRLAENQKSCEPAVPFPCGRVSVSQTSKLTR chain 2: VVGGEDAKPGQFPWQVVLNGKVDAFCGGSIVNEKWIVTAAHCVETGVNITVVAGEHNIEETEHTEQKRNVIRIIPHHNYNAAINKYNHDIALLELDEPLVLNSYVTPICIADKEYTNIFLKFGSGYVSGWGRVFHKGYSALVLQYLRVPLVDRATCLRSTKFTIYNNMFCAGFHEGGRDSCQGDSGGPHVTEVEGTSFLTGIISWGEECAMKGKYGIYTKVSRYVNWIKNKTKLT , thanks.
Reply: 1.2e+08 M⁻¹ s⁻¹

Ask: Returns the measured kcat/KM (M^-1s^-1), FX activation by FIXa in the Xase complex for the input protein. Input: FIXa-Y155F/R318Y/R338E/E410N (protein) chain 1: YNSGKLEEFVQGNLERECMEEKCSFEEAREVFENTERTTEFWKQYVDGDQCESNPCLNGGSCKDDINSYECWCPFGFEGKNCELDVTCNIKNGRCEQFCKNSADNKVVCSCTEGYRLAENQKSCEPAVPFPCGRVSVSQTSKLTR chain 2: VVGGEDAKPGQFPWQVVLNGKVDAFCGGSIVNEKWIVTAAHCVETGVKITVVAGEHNIEETEHTEQKRNVIRIIPHHNYNAAINKYNHDIALLELDEPLVLNSYVTPICIADKEYTNIFLKFGSGYVSGWGRVFHKGYSALVLQYLRVPLVDRATCLESTKFTIYNNMFCAGFHEGGRDSCQGDSGGPHVTEVEGTSFLTGIISWGEECAMKGKYGIYTKVSRYVNWIKNKTKLT
Reply: 3.7e+08 M⁻¹ s⁻¹

Ask: I have this protein here, FIXa-Y155F/R318Y/R403E/E410N (protein) chain 1: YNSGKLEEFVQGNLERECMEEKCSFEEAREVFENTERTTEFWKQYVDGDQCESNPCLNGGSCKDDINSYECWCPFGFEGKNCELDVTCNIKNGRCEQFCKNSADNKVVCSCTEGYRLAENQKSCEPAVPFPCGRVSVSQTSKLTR chain 2: VVGGEDAKPGQFPWQVVLNGKVDAFCGGSIVNEKWIVTAAHCVETGVKITVVAGEHNIEETEHTEQKRNVIRIIPHHNYNAAINKYNHDIALLELDEPLVLNSYVTPICIADKEYTNIFLKFGSGYVSGWGRVFHKGYSALVLQYLRVPLVDRATCLRSTKFTIYNNMFCAGFHEGGRDSCQGDSGGPHVTEVEGTSFLTGIISWGEECAMKGKYGIYTKVSEYVNWIKNKTKLT , and I need its recorded kcat/KM (M^-1s^-1), FX activation by FIXa in the Xase complex.
Reply: 3.6e+07 M⁻¹ s⁻¹

Ask: Would you mind telling me what kcat/KM (M^-1s^-1), FX activation by FIXa in the Xase complex value was observed for FIXa-A103N/N105S/Y155F/R318Y/R338E/R403E/E410N (protein) chain 1: YNSGKLEEFVQGNLERECMEEKCSFEEAREVFENTERTTEFWKQYVDGDQCESNPCLNGGSCKDDINSYECWCPFGFEGKNCELDVTCNIKNGRCEQFCKNSNDSKVVCSCTEGYRLAENQKSCEPAVPFPCGRVSVSQTSKLTR chain 2: VVGGEDAKPGQFPWQVVLNGKVDAFCGGSIVNEKWIVTAAHCVETGVKITVVAGEHNIEETEHTEQKRNVIRIIPHHNYNAAINKYNHDIALLELDEPLVLNSYVTPICIADKEYTNIFLKFGSGYVSGWGRVFHKGYSALVLQYLRVPLVDRATCLESTKFTIYNNMFCAGFHEGGRDSCQGDSGGPHVTEVEGTSFLTGIISWGEECAMKGKYGIYTKVSEYVNWIKNKTKLT ?
Reply: 1.3e+08 M⁻¹ s⁻¹

Ask: # query: kcat/KM (M^-1s^-1), FX activation by FIXa in the Xase complex of entry FIXa-D203N/F205T/R318Y/E410N (protein) chain 1: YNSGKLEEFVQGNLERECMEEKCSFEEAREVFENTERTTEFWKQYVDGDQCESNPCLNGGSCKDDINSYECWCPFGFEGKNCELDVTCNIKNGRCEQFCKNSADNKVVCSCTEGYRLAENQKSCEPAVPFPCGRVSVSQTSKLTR chain 2: VVGGEDAKPGQFPWQVVLNGKVNATCGGSIVNEKWIVTAAHCVETGVKITVVAGEHNIEETEHTEQKRNVIRIIPHHNYNAAINKYNHDIALLELDEPLVLNSYVTPICIADKEYTNIFLKFGSGYVSGWGRVFHKGYSALVLQYLRVPLVDRATCLRSTKFTIYNNMFCAGFHEGGRDSCQGDSGGPHVTEVEGTSFLTGIISWGEECAMKGKYGIYTKVSRYVNWIKNKTKLT
Reply: 3.9e+07 M⁻¹ s⁻¹

Ask: For FIXa-A103N/N105S/R318Y/R338E/R403E/E410N (protein) chain 1: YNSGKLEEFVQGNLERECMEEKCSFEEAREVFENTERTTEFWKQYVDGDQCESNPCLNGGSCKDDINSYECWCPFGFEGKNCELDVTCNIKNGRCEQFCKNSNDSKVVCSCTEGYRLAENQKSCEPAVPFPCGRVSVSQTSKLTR chain 2: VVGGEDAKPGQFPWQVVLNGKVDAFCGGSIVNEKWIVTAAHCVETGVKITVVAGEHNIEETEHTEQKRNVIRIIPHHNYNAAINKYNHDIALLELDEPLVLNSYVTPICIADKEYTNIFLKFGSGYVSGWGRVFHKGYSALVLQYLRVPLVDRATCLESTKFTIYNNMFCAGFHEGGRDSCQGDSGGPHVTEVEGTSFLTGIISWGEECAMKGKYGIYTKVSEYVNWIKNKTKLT , what is its reported kcat/KM (M^-1s^-1), FX activation by FIXa in the Xase complex?
Reply: 1.5e+08 M⁻¹ s⁻¹

Ask: Field request: kcat/KM (M^-1s^-1), FX activation by FIXa in the Xase complex | item: FIXa-D104N/K106S/Y155F/R318Y/R338E/R403E/E410N (protein) chain 1: YNSGKLEEFVQGNLERECMEEKCSFEEAREVFENTERTTEFWKQYVDGDQCESNPCLNGGSCKDDINSYECWCPFGFEGKNCELDVTCNIKNGRCEQFCKNSANNSVVCSCTEGYRLAENQKSCEPAVPFPCGRVSVSQTSKLTR chain 2: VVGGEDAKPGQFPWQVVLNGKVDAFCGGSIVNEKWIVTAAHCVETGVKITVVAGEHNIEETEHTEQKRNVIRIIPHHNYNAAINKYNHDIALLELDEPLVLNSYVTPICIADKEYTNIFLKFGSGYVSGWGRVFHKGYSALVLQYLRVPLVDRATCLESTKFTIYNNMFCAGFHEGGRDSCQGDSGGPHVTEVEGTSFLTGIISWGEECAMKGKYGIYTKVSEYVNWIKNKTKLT
Reply: 1.8e+08 M⁻¹ s⁻¹
